# tested.system: PD-1 (UniProt Q15116)
# Sequence (Q15116 25-170 limits assumed): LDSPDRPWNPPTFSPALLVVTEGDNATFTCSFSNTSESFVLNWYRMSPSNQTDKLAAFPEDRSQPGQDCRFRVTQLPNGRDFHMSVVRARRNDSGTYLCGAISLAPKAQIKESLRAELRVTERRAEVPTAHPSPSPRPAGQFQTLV
# experimental.details: blocking ELISA, clone supernatant, competitor PD-L1.hFc detected with anti-human Fc HRP
Label rule, in plain words: OD450, PD-L1 binding with PD-1 of 2 OD450 and up is met, under 2 OD450 is not met.

Can NB223 (VHH) VHH: EVQLVESGGGLVQAGGSLRLSCAASGRTFSSYGMGWFRQAPGKEREFVAAVNWSNSSAYYADSVKDRFTISSDNAKSTIYLQMNSLKPEDTAVYYCRPYSDYVTYDPDDYDYWGQGTQVTVSS be said to have OD450, PD-L1 binding with PD-1 at or above 2 OD450? met

Can NB154 (VHH) VHH: QVQLVESGGGLVQAGDSLRLSCAASGGTFSGYGMGWFRQAPGKEREFVAGISRHGGSTGYSSSVKDRFTISRDNAKNTVDLQMNSLKPEDTAVYHCAAALRPDYGDSYVYTSTSNYEYWGQGTQVTVSS be said to have OD450, PD-L1 binding with PD-1 at or above 2 OD450? met

Can NB754 (VHH) VHH: QLQLVESGGGLVQPGGSLRLSCAVSGFTFSSDAMNWYRQAPGKERELVASITIDGGSTNYADSVKGRFTISRDNAKNTLYLQMNSLKPEDTAVYYCNADRGIIIYGKTYWGQGTQVTVSS be said to have OD450, PD-L1 binding with PD-1 at or above 2 OD450? met

Can NB197 (VHH) VHH: QVQLQESGGGLVQPGGSLRLSCAASGFTLDDHSIGWFRQAPGKEREPVSCISTSDGRTYYEDSVKGRFTISRDKAKNTVYLQMDSLKPEDTAVYYCTTDVACYSDYDPSFRFWGQGTQVTVSS be said to have OD450, PD-L1 binding with PD-1 at or above 2 OD450? met

Can NB755 (VHH) VHH: QVQLVESGGGLVQAGGSLRLSCVDSGRTFSSYGMGWFRQAPGKEREFVAAVNWRNTTAYYADSAKDRFTISSDNAKNTVYLQMASLKPEDTGVYYCRPYSDYVSYDPTEYDSWGQGTQVTVSS be said to have OD450, PD-L1 binding with PD-1 at or above 2 OD450? met

Can NB733 (VHH) VHH: QVQLVESGGGLVQPGASLRLSCAAAGFTFSSWAMTWVRQAPGKGLEWVSAISSGSGEMADYADSVKGRFAISRDNAKNTLYLQMNNLQPEDTAMYYCAKGGYLTYANLGPGTQVTVSS be said to have OD450, PD-L1 binding with PD-1 at or above 2 OD450? met

Can NB205 (VHH) VHH: EVQLVESGGGLVQVGDSLRLSCAASGRTFSSVPMGWFRQAPGNQREFVAAISKSGGSAGYADSVKDRSTISRDNAKNTIYLQMNSLKPEDTAVYYCAASSFDFCSTHGCYDYWGQGTQVTISS be said to have OD450, PD-L1 binding with PD-1 at or above 2 OD450? met

Can NB216 (VHH) VHH: QVQLVESGGGLVRAGDSLTLSCAASGRTFSSVPMGWFRQAPGNQREFVAAISKSGGSAGYADSVKDRSTISRDNAKNTIYLQMNSLKPEDTAVYYCAASSYDFCSTHGCYDYWGQGTQVTISS be said to have OD450, PD-L1 binding with PD-1 at or above 2 OD450? met

Can NB173 (VHH) VHH: QVQLQESGGGLVQAGGSLRLSCAASGRSFNSYAMGWFRQAPGKEREFVAAISQNGGTQGYAEAVKDRFTISRDNTNKVVALQMNSLKPEDTAAYYCAADGDASDISYAPPRDYEYDYWGQGTQVTVSS be said to have OD450, PD-L1 binding with PD-1 at or above 2 OD450? not met

Can NB200 (VHH) VHH: QVQLVESGGGLVQAGGSLTLSCAASGRTFNSYAMGWFRQAPGKEREFVAAISQNGGSQGYAEAVKDRFTISRDNTNKVVALQMNSLKPEDTAAYYCAADGDASDRSYAPPRDYEYEYWGQGTQVTVSS be said to have OD450, PD-L1 binding with PD-1 at or above 2 OD450? met

Can NB166 (VHH) VHH: EVQVQESGGGLVQAGGSLTLSCAASGDTILISSIGWYRQAPGKERELVAAITNSGLTYYPDSVKGRFTISRDNAKNTVYLQMNNLKPEDTAVYYCNAGGPPPGGLGYDESDYWGQGTQVTVSS be said to have OD450, PD-L1 binding with PD-1 at or above 2 OD450? met

Can NB220 (VHH) VHH: QVQLQESGGGLLQAGDSLRLSCIVSGRTFSSYAIGWFRQAPGKEREFVAGINWSGRSQYYSESVKDRFTVSIDNAKNTVYLQMNSLKPEDTAVYYCAAERHLGVPTVRDDEYDDWGQGTQVTVSS be said to have OD450, PD-L1 binding with PD-1 at or above 2 OD450? met

Can NB171 (VHH) VHH: QVQLVESGGGLVQAGGSLRLSCAASGRTFSSYAMGWFRQALGKEREWIAGVSMSGRTTYYAAPVKDRFTISRDNAKNTVTLQMNSLKPEDTAVYYCAAGRAQAEIPIMRAQEYDSWGQGTQVTVSS be said to have OD450, PD-L1 binding with PD-1 at or above 2 OD450? not met
